- ASSAY SYSTEM: human tau(pS422) (Homo sapiens, UniProt P10636, S739X)
- METHOD SUMMARY: BIAcore kinetic screening and kinetic rates of humanized VH/VL combinations
- Type: binding
- EXPERIMENTAL SETUP: 25 °C; VL17 or VL19 with VH variants
PROPERTY NAME: t/2 diss (min)
Answer in min, number only, no unit symbol.

Reported t/2 diss for VL19 with VH23: anti-human tau(pS422) antibody; VH SEQ ID NO: 55, VL SEQ ID NO: 38 (antibody, V domains shown, humanized sequence) VH: EVQVLESGGGLVQPGGSLRLSCAVSGFSLSSNAINWVRQAPGKGLEWVGYIAVSGNTYYADSVKGRFTISKDNSKNTVYLQMNSLRAEDTAVYYCGKSNIWGQGTLVTVSS VL: AQVMTQSPSSLSASVGDRVTITCRSSQSVRTNKLAWFQQKPGQPPKRLIYSASTLDFGVPSRFSGSGSGTEFTLTISSLQPEDFATYYCLGYFDCSIADCVAFGGGTKVEIK : what is it? 20
